Assay: Half-life was determined by hydrolysis of compound in a solution of peptidases
Assay type: ADME
assay_metric: half-life (h)
Give the number; h is assumed, so skip it.

Which half-life is listed for N[C@@H](CCC(=O)[O-])C(=O)Nc1ccc(O)c(C(=O)[O-])c1.[Na+].[Na+] ?
1.35

====

Organism: Rattus norvegicus
Experiment: Urinary recovery in colostomized rats at 2 hr intervals for 48 h
Type: functional, Urine
For each of the compounds below, state its Urinary recovery.
Give the number; % is assumed, so skip it.

Which Urinary recovery is listed for Nc1ccc(O)c(C(=O)O)c1 [MESALAMINE] ?
69.61

And what about the compound N[C@@H](CCC(=O)[O-])C(=O)Nc1ccc(O)c(C(=O)[O-])c1.[Na+].[Na+] ?
31.83

And what about the compound O=C(O)c1cc(/N=N/c2ccc(S(=O)(=O)Nc3ccccn3)cc2)ccc1O [SULFASALAZINE] ?
33.34

And what about the compound N[C@@H](CC(=O)[O-])C(=O)Nc1ccc(O)c(C(=O)[O-])c1.[Na+].[Na+] ?
32.66

Where these numbers come from: ChEMBL document CHEMBL1126985
